# System Tested: Btk (Homo sapiens)
# Construct: purified from insect cells as a full-length construct containing a N-terminal 6X-His tag; His6 (N); made in house; host or cells: insect cells (Method C)
# Assay: Btk in vitro inhibitory activity (one of Method A TR-FRET, Method B electrophoretic mobility shift, Method C radiometric filter binding)
# Format: biochemical
# Conditions Used: wild-type Btk; read-out: Btk-WT IC50
Measure Name: pIC50
// pIC50 here means minus log10 of the molar concentration (mol/L)

Q) What measured pIC50 goes with C=CC(=O)N1CC[C@@H](Nc2n[nH]c3nccc(-c4ccc(CNC(=O)c5ccc6c(c5)OCCO6)c(F)c4)c23)C1 [Example 374] ?
A) 8.91

Q) Can you check C=CC(=O)N1CC[C@@H](Nc2n[nH]c3nccc(-c4ccc(CN5CCc6cc(C(C)(C)C)ccc6C5=O)c(F)c4)c23)C1 [Compound 43] next?
A) 8.56

Q) Can you check CC(C)(C)c1nc(C(=O)NCc2ccc(-c3ccnc4[nH]nc(N[C@@H]5CC[C@H](N)C5)c34)cc2F)no1 [Example 315] next?
A) 8.42

Q) Can you check CC(C)(C)c1noc(C(=O)NC2(c3ccc(-c4ccnc5[nH]nc(N[C@@H]6CCNC6)c45)cc3)CC2)n1 [Example 71] next?
A) 7.37

Q) Can you check C=CC(=O)N[C@@H]1CCN(c2n[nH]c3nccc(-c4ccc(CNC(=O)c5noc(C(C)(C)C)n5)c(F)c4)c23)C1 [Example 102] next?
A) 10.19

Q) Can you check C=CC(=O)N1CC[C@@H](Nc2n[nH]c3nccc(-c4ccc([C@H](C)NC(=O)c5noc(C(C)(C)C)n5)cc4)c23)C1 [Example 95] next?
A) 7.17

* * *

# System Tested: TEC (Homo sapiens)
# Sequence (P42680 1-631): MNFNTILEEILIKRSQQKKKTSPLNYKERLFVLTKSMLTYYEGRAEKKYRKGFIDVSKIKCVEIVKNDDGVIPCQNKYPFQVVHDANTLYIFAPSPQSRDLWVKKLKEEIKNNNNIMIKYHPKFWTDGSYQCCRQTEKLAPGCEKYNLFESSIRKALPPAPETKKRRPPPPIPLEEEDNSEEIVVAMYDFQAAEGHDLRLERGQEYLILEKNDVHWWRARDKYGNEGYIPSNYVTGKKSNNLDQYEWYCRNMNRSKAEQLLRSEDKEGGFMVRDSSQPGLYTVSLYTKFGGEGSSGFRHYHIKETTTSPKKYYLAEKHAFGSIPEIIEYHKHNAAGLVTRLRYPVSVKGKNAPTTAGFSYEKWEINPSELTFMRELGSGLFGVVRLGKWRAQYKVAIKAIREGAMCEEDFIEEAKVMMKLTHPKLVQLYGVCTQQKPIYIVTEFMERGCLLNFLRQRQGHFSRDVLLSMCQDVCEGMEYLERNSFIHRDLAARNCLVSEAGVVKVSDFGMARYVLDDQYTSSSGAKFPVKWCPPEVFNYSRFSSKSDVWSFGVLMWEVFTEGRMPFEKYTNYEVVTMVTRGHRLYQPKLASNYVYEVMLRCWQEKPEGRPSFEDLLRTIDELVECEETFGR
Measure Name: pIC50
// pIC50 here means minus log10 of the molar concentration (mol/L)

Q) What measured pIC50 goes with C[C@H]1CC[C@@H](Nc2n[nH]c3nccc(-c4ccc(CNC(=O)c5noc(C(C)(C)C)n5)c(F)c4)c23)CN1C(=O)CC#N ?
A) 6.07

Q) Can you check CC(=O)N[C@@H]1CCN(c2n[nH]c3nccc(-c4ccc(CNC(=O)c5cc(C(C)C)no5)c(F)c4)c23)C1 next?
A) 5.65

Q) Can you check CC(C)(C)c1noc(C(=O)NCc2ccc(-c3ccnc4[nH]nc(C5CC5)c34)cc2F)n1 next?
A) 5.79

Q) Can you check C=CC(=O)N1CC[C@@H](Nc2n[nH]c3nccc(-c4cccc(NC(=O)c5noc(C(C)(C)C)n5)c4CO)c23)C1 next?
A) 6.04

Q) Can you check CC(=O)N[C@@H]1CCN(c2n[nH]c3nccc(-c4ccc(CNC(=O)c5nc(C(C)C)no5)c(F)c4)c23)C1 next?
A) 5.83

Q) Can you check C=CC(=O)N[C@@H]1CCN(c2n[nH]c3nccc(-c4ccc(CNC(=O)c5cc(C(C)(C)C#N)on5)c(F)c4)c23)C1 next?
A) 8.19

Q) Can you check CC(C)c1noc(C(=O)N[C@H](C)c2ccc(-c3ccnc4[nH]nc(N5CCOCC5)c34)cc2)n1 next?
A) 6.04

* * *

Observed IC50 values for UniProt:P42680 are listed in what follows.

Q) What measured IC50 goes with CC1(C(=O)N2CC[C@@H](Nc3n[nH]c4nccc(-c5ccc(CNC(=O)c6ccc(C7CC7)cc6)c(F)c5)c34)C2)COC1 ?
A) 3.01 µM

Q) Can you check CC(C)(C)c1ccc(C(=O)NCc2ccc(-c3ccnc4[nH]nc(NC5CCNC5)c34)cn2)cc1 (stereo not shown) next?
A) 4.47 µM

Q) Can you check CCC(=O)N1CC[C@@H](Nc2n[nH]c3nccc(-c4ccc(C5(NC(=O)c6noc(C(C)(C)C)n6)CC5)cc4)c23)C1 next?
A) 2.59 µM

Q) Can you check CC(C)(C)c1ccc(C(=O)NCc2ccc(-c3ccnc4[nH]nc(NC5CCNCC5)c34)cc2F)cc1 next?
A) > 10 µM

* * *

# System Tested: TEC (Homo sapiens, UniProt P42680)
# Assay: Inhibition of a panel of kinases (in vitro HotSpot kinase assay, 33P-ATP, 1 μM ATP)
# Format: biochemical
# Conditions Used: ratio of TEC IC50 to Btk IC50 (selectivity)
So I've got a bunch of molecules here, and I need their TEC/Btk values.
Give your answer as a number; write no unit.

Q) What measured TEC/Btk goes with C[C@H]1CC[C@@H](Nc2n[nH]c3nccc(-c4ccc(CNC(=O)c5noc(C(C)(C)C)n5)c(F)c4)c23)CN1C(=O)N(C)C ?
A) 337

Q) Can you check C[C@H]1CC[C@@H](Nc2n[nH]c3nccc(-c4ccc(CNC(=O)c5cc(C(C)(C)C)on5)c(F)c4)c23)CN1C(=O)N(C)C next?
A) 549

Q) Can you check C=CC(=O)N1CC[C@@H](Nc2n[nH]c3nccc(-c4ccc(CCNC(=O)c5noc(C(C)(C)C)n5)c(F)c4)c23)C1 next?
A) 479

Q) Can you check C=CC(=O)N1CC[C@@H](Nc2n[nH]c3nccc(-c4ccc(CNC(=O)c5cnn(C(C)(C)C)c5)c(F)c4)c23)C1 next?
A) 440

Q) Can you check CC(C)(C)c1noc(C(=O)NCc2ccc(-c3ccnc4[nH]nc(N5CCC(NC(=O)c6ccccc6)CC5)c34)cc2F)n1 next?
A) 2599

* * *

# System Tested: Btk (Homo sapiens, UniProt Q06187)
# Construct: purified from insect cells as a full-length construct containing a N-terminal 6X-His tag; His6 (N); made in house; host or cells: insect cells (Method C)
# Sequence (Q06187 whole entry): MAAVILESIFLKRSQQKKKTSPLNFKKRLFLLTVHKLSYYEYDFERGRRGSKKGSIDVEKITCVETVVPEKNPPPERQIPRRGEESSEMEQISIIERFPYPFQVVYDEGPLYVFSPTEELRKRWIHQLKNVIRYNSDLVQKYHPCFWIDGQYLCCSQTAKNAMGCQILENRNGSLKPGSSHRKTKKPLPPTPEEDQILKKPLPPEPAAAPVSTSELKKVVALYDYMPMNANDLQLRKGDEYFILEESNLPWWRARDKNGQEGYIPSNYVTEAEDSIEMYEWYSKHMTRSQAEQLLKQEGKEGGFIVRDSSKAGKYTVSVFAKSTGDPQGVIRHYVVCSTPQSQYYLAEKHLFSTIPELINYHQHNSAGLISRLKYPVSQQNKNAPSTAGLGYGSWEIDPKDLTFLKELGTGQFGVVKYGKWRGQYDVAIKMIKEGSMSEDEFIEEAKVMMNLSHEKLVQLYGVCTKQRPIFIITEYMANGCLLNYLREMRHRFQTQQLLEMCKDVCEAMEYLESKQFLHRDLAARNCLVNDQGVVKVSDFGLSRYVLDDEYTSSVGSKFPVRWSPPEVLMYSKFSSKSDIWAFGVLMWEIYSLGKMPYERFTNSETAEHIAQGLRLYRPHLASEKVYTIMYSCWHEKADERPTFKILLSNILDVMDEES
# Assay: Btk in vitro inhibitory activity (one of Method A TR-FRET, Method B electrophoretic mobility shift, Method C radiometric filter binding)
# Format: biochemical
# Conditions Used: wild-type Btk; read-out: Btk-WT IC50
Measure Name: pIC50
// pIC50 here means minus log10 of the molar concentration (mol/L)

Q) Hi! What's the reported pIC50 for C=CC(=O)N1CC[C@@H](Nc2n[nH]c3nccc(-c4ccc(CNC(=O)c5cc6c(n5C)CC(C)(C)C6)c(F)c4)c23)C1 on Btk (Homo sapiens, UniProt Q06187)?
A) 8.11

Q) Can you check C=CC(=O)N1CCC[C@@H](Nc2n[nH]c3nccc(-c4ccc(C5(NC(=O)c6noc(C(C)(C)C)n6)CC5)c(F)c4)c23)C1 next?
A) 9.11

Q) Can you check C=CC(=O)N[C@@H]1CCN(c2n[nH]c3nccc(-c4ccc(CNC(=O)c5noc(C(C)C)n5)c(F)c4)c23)C1 next?
A) 10.24

Q) Can you check C=CC(=O)N1CC[C@@H](Nc2n[nH]c3nccc(-c4ccc(C(C)(C)NC(=O)c5noc(C(C)(C)C)n5)cc4)c23)C1 next?
A) 8.86

Q) Can you check CC(C)(C)c1nc(C(=O)NCc2ccc(-c3ccnc4[nH]nc(NC5CNC5)c34)cc2F)no1 next?
A) 9.08

Q) Can you check CC(C)(C)c1cc(C(=O)NCc2ccc(-c3ccnc4[nH]nc(N[C@@H]5CCNC5)c34)cc2F)no1 next?
A) 7.99

Q) Can you check CC(C)c1noc(C(=O)NCc2ccc(-c3ccnc4[nH]nc(N5CC[C@@H](N)C5)c34)cc2F)n1 next?
A) 8.22

Q) Can you check CC(C)(C)c1nc(C(=O)NC2(c3ccc(-c4ccnc5[nH]nc(N[C@@H]6CCNC6)c45)cc3)CC2)no1 next?
A) 7.24

Q) Can you check C[C@H]1CC[C@@H](Nc2n[nH]c3nccc(-c4ccc(CNC(=O)c5cc(C(C)(C)C)on5)c(F)c4)c23)CN1C(=O)N(C)C next?
A) 8.71

Q) Can you check CC(C)N1CC[C@H](Nc2n[nH]c3nccc(-c4ccc(CNC(=O)c5nc(C(C)(C)C)no5)c(F)c4)c23)C1 next?
A) 8.32

Q) Can you check CC(C)(C)c1noc(C(=O)NCc2ccc(-c3ccnc4[nH]nc(N5CCCC5=O)c34)cc2F)n1 next?
A) 6.84

Q) Can you check C=CC(=O)N[C@@H]1CCN(c2n[nH]c3nccc(-c4ccc(CNC(=O)c5nc(C(C)(C)C)no5)c(F)c4)c23)C1 next?
A) 10.45
